Test: Accelerated stability study
Format: physicochemical
Conditions: accelerated stability, Initial (0 month)
readoutKind: Difference in TQ content (%)
Unit % implied. Number only.

IN: Using the record for CC1=CC(=O)C(C(C)C)=CC1=O [TQ, thymoquinone] , state its measured Difference in TQ content.
OUT: 0

----------
Test: Long term stability study
Format: physicochemical
Details: 3rd month vs initial
readoutKind: Difference in TQ content

IN: Using the record for CC1=CC(=O)C(C(C)C)=CC1=O [TQ, thymoquinone] , state its measured Difference in TQ content.
OUT: 0.09%

----------
Assay: Long term stability study
Assay type: physicochemical
Settings: Initial (0 Month)
readoutKind: Difference in TQ content
Answer format reminder: number followed by unit.

IN: Using the record for CC1=CC(=O)C(C(C)C)=CC1=O [TQ, thymoquinone] , state its measured Difference in TQ content.
OUT: 0%

Where do the numbers come from? From patent US10945969B2.
